We begin with a simple list: items and their reported EC50.
measured target: T1, recombinant extracellular domain protein of cynomolgus monkey DLL3 (cyno.DLL3-ECD-His) (cynomolgus monkey, UniProt A0A2K5WSR1 27-490)
T1 construct: extracellular domain; Commercial protein; not shown: His tag
T1 sequence: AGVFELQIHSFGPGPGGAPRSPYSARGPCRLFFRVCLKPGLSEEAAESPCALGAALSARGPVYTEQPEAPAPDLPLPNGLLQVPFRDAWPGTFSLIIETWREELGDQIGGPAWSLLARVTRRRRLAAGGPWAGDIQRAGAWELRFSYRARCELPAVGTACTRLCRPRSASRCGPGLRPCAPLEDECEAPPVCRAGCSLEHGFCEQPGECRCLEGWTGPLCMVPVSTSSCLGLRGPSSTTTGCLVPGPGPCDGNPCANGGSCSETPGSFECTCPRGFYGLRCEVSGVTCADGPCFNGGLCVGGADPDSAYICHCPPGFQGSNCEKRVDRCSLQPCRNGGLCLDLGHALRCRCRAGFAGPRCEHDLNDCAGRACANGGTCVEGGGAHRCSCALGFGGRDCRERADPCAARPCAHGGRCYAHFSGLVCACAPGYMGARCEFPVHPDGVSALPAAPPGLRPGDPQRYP
method description: ELISA, coated cynoDLL3-ECD-his, murine antibody titrated
Output spec: scalar in µg/mL, unitless text.

Check out these entries, answers already filled in.
murine antibody 59B10D3 (antibody, V domains shown, Murine antibody purified from hybridoma supernatant) VH: EVKLEESGGGLVQPGGSMKLSCAASGFTFSDAWMDWVRQSPEKGLEWIAEIRNKANNHATYYTESVKGRFTISRDDSKSSVYLQMISLRPEDTGIYYCTRNNYGSTWTYYAMDYWGQGTSVTVSS VL: DIQMTQTSSSLSASLGDRVTINCRASQDISNYLNWYQQKPDGTVKLLIYYTSRLHSGVPSRFSGSGSGTDYSLTISNLEHEDIATYFCQQGYTLPLTFGAGTNLELK :: 0.00125
murine antibody 6F11C10 (antibody, V domains shown, Murine antibody purified from hybridoma supernatant) VH: EVHLQQSGPVLVKPGPSVKISCKASGFTFTDYYMHWVKQSHGKSLEWIGLVYPYNGDISYNQKFKGKATLTVDTSSSTAYMELNSLTSEDSAVYYCARQGNYVNNAIDYWGQGTSVTVSS VL: DIVMTQSQKFMSTSVGDRVSISCKASQNVGNIIAWYQQKPGQSPKALIYLASYRYSGVPDRFTGSGSGTDFTLTINNVQSEDLAEYFCQQYSDSPYTFGSGTKLEI :: 0.0195
murine antibody 55C11E4 (antibody, V domains shown, Murine antibody purified from hybridoma supernatant) VH: EVQLQQSGPVLVKPGASVKMSCKASGYTFTDYYMNWVKQSHGKSLEWIGVINPYNGGTNYSQKFKGKATLTVDKSSSTAYMELNSLTSEDSAVYYCARDSNYVGLLDYWGQGTSVTVSS VL: DIVLTQSPATLSVTPGDSVSLSCRASQSISNNLHWYQQKSHESPRLLIKYASQSISGIPSRFSGSGSGPDFTLSIDSVETEDFGVYFCQQSNSWPYTFGGGTKLEIK :: 0.0409

Continue with the binder presented below.
Report EC50 for murine antibody 87F7F10 (antibody, V domains shown, Murine antibody purified from hybridoma supernatant) VH: DVQLQESGPGLVKPSQSLSLTCSVTGYSITSDFYWNWIRQFPGNKLEWMGYITYDGSTNYDPSLKNRISITRDTSKNQFFLKLNSVTAEDTATYYCVYGDFNRHAMDYWGQGTSVTVSS VL: DIVMSQSPSSLAVSAGEKVTMSCRSSQSLFNSRTRKNYLAWYQQKPGQPPKVLIYWASTRESGVPDRFTGSGSGTDFTLTISSVQAEDLAVYYCEQSFYLFTFGTGTKLEI please.
0.00131

Entry source: patent US20260166168A1
